Every entry's value here was drawn from paper PMC8815882.

Measured activity at 25 µM accompanies every entry in the list below.
tested on: M. mycetomatis genome strain MM55; test: CLSI M38-A2 based in vitro susceptibility screening (XTT or resazurin), growth at fixed concentration; assay type: cell-based, Madurella mycetomatis; conditions: Madurella mycetomatis, 25 uM, replicate A, MM55; read-out: Percentage survival at 25um, 25 um A

Compound | Readout unit | activity at 25 µM
Cc1cc(CCCOc2c(C)cc(-c3noc(C(F)(F)F)n3)cc2C)on1 | % | 152
Cc1nc(N(C)C(=O)Cc2ccc(-c3ccccn3)cc2)sc1S(N)(=O)=O | % | 102
CC(C)Nc1nc2cc(Cl)c(Cl)cc2n1[C@H]1O[C@@H](CO)[C@H](O)[C@@H]1O | % | 104
CC(C)CCN1C(=O)C(C2=NS(=O)(=O)c3cc(NS(C)(=O)=O)ccc3N2)=C(O)[C@@H]2[C@H]3CC[C@H](C3)[C@@H]21 | % | 78.4
Nc1nc(F)nc2c1ncn2[C@@H]1O[C@H](CO)[C@@H](O)[C@@H]1O [MMV637413, Fludarabine, reference compound] | % | 3.41
Nc1nc2c(ncn2/C=C2/CC2(CO)CO)c(=O)[nH]1 | % | 102
Cn1cncc1[C@@](N)(c1ccc(Cl)cc1)c1ccc2c(c1)c(-c1cccc(Cl)c1)cc(=O)n2C | % | 0.79
Nc1ccc(-c2nc3cc(C(F)(F)F)ccc3n2C23CC4CC(CC(C4)C2)C3)cc1 | % | 108
O=C(CSc1nnc(Br)n1-c1ccc(C2CC2)c2ccccc12)Nc1ccc(C(=O)O)cc1Cl | % | 93.7
C[Si]1(C)CCN(Cc2cc(-c3ccc(Cl)cc3)n(-c3ccc(Cl)cc3)n2)CC1 | % | 56.5
C[C@H]1COc2c(N3CCN(C)CC3)c(F)cc3c(=O)c(C(=O)O)cn1c23 | % | 101
C=C(C)[C@@H]1CC[C@]2(C(=O)O)CC[C@]3(C)[C@H](CC[C@@H]4[C@@]5(C)CC[C@H](O)C(C)(C)[C@@H]5CC[C@]43C)[C@@H]12 | % | 65.7
COc1ccc(C(C)(C)C)cc1NC(=O)C(=O)c1ccc(OCCN2CCOCC2)c2ccccc12 | % | 102
C[C@@H](NC(=O)c1cccc(-c2c[nH]c(-c3cc4ccccc4cn3)n2)c1)c1ccc(F)cc1 | % | 80.9
CC(C)Oc1ccc(-n2cnc3cc(/C=C\c4ccc(C(C)(C)O)cc4)ccc32)cc1 | % | 60
CN1C(=O)C(c2ccccc2)C(=O)N(c2ccccc2)c2cc(C(F)(F)F)ccc21 (stereo not shown) | % | 120

----------
system: M. mycetomatis genome strain MM55; assay: CLSI M38-A2 based in vitro susceptibility screening (XTT or resazurin), growth at fixed concentration; format: cell-based, Madurella mycetomatis; conditions: Madurella mycetomatis, 100 uM, replicate 3, M. mycetomatis MM55; read-out: Percentage survival at 100um, 100 uM A (third replicate column)
Measured activity at 100 µM accompanies every entry in the list below.

Molecule | activity at 100 µM
C[C@H]1CC[C@@]2(O)C(C)(C)[C@@H]3CC[C@@]2(C)[C@H]1C3 | 82.4%
NC(=O)c1ccccc1NC(=O)c1ccc(C(=O)Nc2ccccc2C(N)=O)cc1 | 95.8%
COC(=O)Nc1nc2ccccc2[nH]1 | 21.4%
CN1CCN(c2ccc3[nH]c(-c4ccc5[nH]c(-c6ccc(O)cc6)nc5c4)nc3c2)CC1 | 4.7%
O=C(Nc1ccccc1C(=O)O)c1cccc(Oc2ccccc2)c1 | 72.2%
O=c1cc(Nc2ccc3ccccc3c2)[nH]c(=O)[nH]1 | 80.4%
NC(=O)[C@@H]1CC[C@@H]2CN1C(=O)N2OS(=O)(=O)O | 94.1%
CC1(C)Cc2c(C#N)c(SCCc3ccccc3)nc(N3CCOCC3)c2CO1 | 65.1%
CO[C@@]1(NC(=O)Cc2cccs2)C(=O)N2C(C(=O)O)=C(COC(N)=O)CS[C@@H]21 | 85.1%
OCCCCn1cnc2c(O)nc(NCc3ccc(Cl)c(Cl)c3)nc21 | 70.1%
O=C(Nc1ccccc1)N(Cc1cc(Br)ccc1O)c1ccc(F)cc1 | 24.3%
CC(C)(C)c1cc(CCC(=O)N2CCC2)cc(C(C)(C)C)c1O | 65.1%
Clc1cc2nc(C3CCNCC3)n(Cc3ccc(CNCCc4cnc[nH]4)cc3)c2cc1Cl | 64.1%
OC1O[C@H](CSc2ccc(F)cc2)[C@@H](O)[C@H]1O (stereo partly shown) | 83.9%
N=C(N)c1ccc(COc2ccc(Cl)cc2)cc1 | 67.2%
Cc1c(N)cccc1Cn1ccc(OCCc2cccs2)cc1=O | 80%
COc1ccc2cc3[n+](cc2c1OCCN(CCn1cncn1)Cc1ccc(F)cc1F)CCc1cc2c(cc1-3)OCO2 | 88.4%
COc1cc(Cc2cnc(N)nc2N)cc(OC)c1OC | 79.6%
C[C@H](c1cccc2ccccc12)N(C)Cc1ccccc1 | 117%

----------
system: M. mycetomatis genome strain MM55; test: CLSI M38-A2 based in vitro susceptibility screening (XTT or resazurin), growth at fixed concentration; format: cell-based, Madurella mycetomatis; settings: Madurella mycetomatis, 25 uM, replicate A; read-out: Percentage survival at 25um, 25 um A
Classification field: t = activity at 25 µM at or over 90%; f = activity at 25 µM under 90%.

Compound | Experimental target | Class assignment
CCCNc1ccc(S(=O)(=O)Nc2cc(C)on2)cc1 | M. mycetomatis genome strain MM55 | f
O=[N+]([O-])/C(Br)=C/c1ccc(Br)o1 | M. mycetomatis genome strain MM55 | f
COC1CC2CCC(C)C(O)(O2)C(=O)C(=O)N2CCCCC2C(=O)OC(C(C)CC2CCC(OCCO)C(OC)C2)CC(=O)C(C)/C=C(\C)C(O)C(OC)C(=O)C(C)CC(C)/C=C/C=C/C=C/1C (centres unmarked) | M. mycetomatis genome strain MM55 | f
COc1c(NC(=O)[C@H]2CC[C@@H](COc3ccc([N+](=O)[O-])cc3)CC2)c(F)cc2c(=O)c(C(=O)O)cn(C3CC3)c12 | M. mycetomatis genome strain MM55 | f
Clc1ccc(Cn2c(CN3CCCC3)nc3ccccc32)cc1 | M. mycetomatis genome strain MM55 | f
COc1ccc(-n2cnc3cc(NCc4ccco4)ccc32)cc1 | M. mycetomatis genome strain MM55 | f
Cc1[nH]c2ccccc2c1CC(=O)N[C@@H](Cc1ccccc1)C(=O)N(C)c1ccccc1 | M. mycetomatis genome strain MM55 | f
C[C@@H](c1nc(-c2ccc(C#N)cc2)cs1)[C@](O)(Cn1cncn1)c1ccc(F)cc1F | M. mycetomatis genome strain MM55 | f
CC(C)(C)NC(=O)[C@@H]1C[C@@H]2CCCC[C@@H]2CN1C[C@@H](O)[C@H](Cc1ccccc1)NC(=O)[C@H](CC(N)=O)NC(=O)c1ccc2ccccc2n1 | M. mycetomatis genome strain MM55 | t
CCCCOC(=O)Nc1cc2nc(C3CCCCC3)[nH]c2cc1N(CC)CC | M. mycetomatis genome strain MM55 | t
O=C(NN1C(=O)[C@@H]2C3C=CC([C@H]4C[C@@H]34)[C@@H]2C1=O)c1ccc(C(F)(F)F)cc1 | M. mycetomatis genome strain MM55 | t
CCc1nc(N)nc(N)c1C#CCc1ccccc1 | M. mycetomatis genome strain MM55 | f
COc1ccc(NC(=O)c2cc3ccccn3n2)cc1 | M. mycetomatis genome strain MM55 | t
O=C1c2cccc3cccc(c23)C(=O)N1CC1CO1 (centres unmarked) | M. mycetomatis genome strain MM55 | f

----------
test system: M. mycetomatis genome strain MM55; assay: CLSI M38-A2 based in vitro susceptibility screening (XTT or resazurin), growth at fixed concentration; assay type: cell-based, Madurella mycetomatis; conditions: Madurella mycetomatis, 100 uM, replicate 1; read-out: Percentage survival at 100um, 100 uM A (first replicate column)
Classification field: T = activity at 100 µM at or over 80%; F = activity at 100 µM under 80%.

Molecule | Experimental target | Class assignment
CC(Cc1ccccc1)C(=O)Nc1ccc(Cl)cc1C(=O)O (stereo not drawn) [MMV1579781] | M. mycetomatis genome strain MM55 | T
CC1=C(/C=C/C(C)=C/C=C/C(C)=C/C(=O)Nc2ccc(O)cc2)C(C)(C)CCC1 [MMV001793] | M. mycetomatis genome strain MM55 | F
CC(=O)N[C@H](C)C(=O)N[C@H](Cc1ccccc1)C(=O)O [MMV1580845] | M. mycetomatis genome strain MM55 | T
N#Cc1c(F)c(Cl)c(NCc2ccccc2)c(C#N)c1F [MMV1582496] | M. mycetomatis genome strain MM55 | F
CCOCc1nc2c(N)nc3ccccc3c2n1CC(C)(C)O [MMV690547] | M. mycetomatis genome strain MM55 | T
CCOC(=O)N[C@@H]1CC[C@@H]2[C@@H](C1)C[C@H]1C(=O)O[C@H](C)[C@H]1[C@H]2/C=C/c1ccc(-c2cccc(F)c2)cn1 [MMV1593515] | M. mycetomatis genome strain MM55 | F
Nc1nc(C(F)(F)F)cc2c1[nH]c(=O)n2Cc1ccccc1 [MMV1634389] | M. mycetomatis genome strain MM55 | F
Cc1c(OCC(F)(F)F)ccnc1C[S+]([O-])c1nc2ccccc2[nH]1 (stereo not drawn) [MMV001438] | M. mycetomatis genome strain MM55 | F
COc1ccc(NC(=O)c2cc3ccccn3n2)cc1 [MMV374187] | M. mycetomatis genome strain MM55 | F
O=C(NN1C(=O)[C@@H]2C3C=CC([C@H]4C[C@@H]34)[C@@H]2C1=O)c1ccc(C(F)(F)F)cc1 [MMV1782114] | M. mycetomatis genome strain MM55 | T
NC(=O)c1c(N)sc2c1CCCCC2 [MMV056052] | M. mycetomatis genome strain MM55 | T
O=C(CC1Sc2ncnn2C1=O)Nc1ccc(Br)cc1 (stereo not drawn) [MMV214956] | M. mycetomatis genome strain MM55 | F
C[C@H](NC(=O)C(=O)Nc1ccccc1C(C)(C)C)C(=O)N[C@@H](CC(=O)O)C(=O)COc1c(F)c(F)cc(F)c1F [MMV1580794] | M. mycetomatis genome strain MM55 | F
COc1cc(Cc2cnc(N)nc2N)c2c(c1OC)OC(C1CC1)C=C2 (stereo not drawn) [MMV1613563] | M. mycetomatis genome strain MM55 | T
